Measured protein stability index of individual entries
B1: FBXO3 (parent)
chain: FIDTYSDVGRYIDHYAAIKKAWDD

- Variants of: B1
- Measurement notes: protein stability index of a GFP-peptide fusion (GPS, HEK-293T) (PSI 1-6); higher = more stable;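 note: lentivirally expressed fusions sorted by FACS into six bins by GFP to DsRed ratio, PSI derived from sequencing read proportions per bin multiplied by bin number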
- Conditions: c terminus: a fixed tail appended
Quick one: just the number, no unit, thanks!

INSERT INTO measurements (mutation_name, reported_result) VALUES
  ('G9D', 1.57);

Here is another variant to look at.
Would you kindly share the measured protein stability index for A17G ?
1.84
